target: Ubiquitin carboxyl-terminal hydrolase isozyme L3 (Homo sapiens); experiment: Inhibition of UCHL3 (unknown origin)
Sequence (P15374 whole entry): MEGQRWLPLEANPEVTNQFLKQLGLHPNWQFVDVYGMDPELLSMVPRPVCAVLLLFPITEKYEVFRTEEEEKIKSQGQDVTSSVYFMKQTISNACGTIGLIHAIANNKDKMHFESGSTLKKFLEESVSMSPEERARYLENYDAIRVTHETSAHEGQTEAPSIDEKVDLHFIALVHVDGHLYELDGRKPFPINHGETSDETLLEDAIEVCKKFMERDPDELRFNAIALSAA
readout.name: IC50 (µM)

smiles.data: CC(=O)O/N=C1/C(=O)N(Cc2cc(Cl)ccc2Cl)c2ccc(Cl)cc21
test.value: 25
